# Test system: A431
# experimental details: LBPA endosome anti-LBPA integrated intensity (sum per cell), Z-score; higher = more LBPA staining
# experimental context: compound concentration in added solution (µM; 5 µl added to 20 µl cells): 10; 18 h
Where a name gives a salt, the structure may show the parent alone.
measured attribute: LBPA endosome anti-LBPA integrated intensity (z-score)
I'd appreciate a reply containing only the number, no unit.

molecule	observed value
COc1cc2nc(N3CCN(C(=O)C4COc5ccccc5O4)CC3)nc(N)c2cc1OC (stereo not drawn) [Doxazosin mesylate]	3.8
C[C@H](N)[C@H](O)c1cccc(O)c1 [Metaraminol bitartrate]	-0.242
CC(=O)[C@H]1CC[C@H]2[C@@H]3C=CC4=CC(=O)CC[C@@]4(C)[C@@H]3CC[C@]12C	1.19

**Query** // lookup LBPA endosome anti-LBPA integrated intensity (z-score) for CC(=O)OCC(=O)[C@@]1(O)CC[C@H]2[C@@H]3CCC4=CC(=O)C=C[C@]4(C)[C@@]3(F)[C@@H](O)C[C@@]21C [Isoflupredone acetate]
**Result** -0.244

**Query** Report LBPA endosome anti-LBPA integrated intensity (z-score) for CO[C@@H]1[C@@H](OC(N)=O)[C@@H](O)[C@H](Oc2ccc3c(O)c(NC(=O)c4ccc(O)c(CC=C(C)C)c4)c(=O)oc3c2C)OC1(C)C [Novobiocin sodium salt] please.
**Result** -0.507

**Query** Tell me the measured LBPA endosome anti-LBPA integrated intensity (z-score) of CCOC(=O)[N-]c1c[n+](N2CCOCC2)no1 , please.
**Result** -0.56

**Query** Entry CCCCCN(CCCCC)C(=O)C(CCC(=O)O)NC(=O)c1ccc(Cl)c(Cl)c1 (stereo not drawn) [Lorglumide sodium salt] : reported LBPA endosome anti-LBPA integrated intensity (z-score) = ?
**Result** -0.556

**Query** Could you share which LBPA endosome anti-LBPA integrated intensity (z-score) value was measured for Cc1cc(CC(=O)O)n(C)c1C(=O)c1ccc(Cl)cc1 [Zomepirac sodium salt] ?
**Result** -0.359

**Query** Entry under review: CC[C@H]1OC(=O)[C@H](C)[C@@H](O[C@H]2C[C@@](C)(OC)[C@@H](O)[C@H](C)O2)[C@H](C)[C@@H](O[C@@H]2O[C@H](C)C[C@H](N(C)C)[C@H]2O)[C@](C)(O)C[C@@H](C)/C(=N\OCOCCOC)[C@H](C)[C@@H](O)[C@]1(C)O . Reported LBPA endosome anti-LBPA integrated intensity (z-score)?
**Result** -0.396

**Query** For the molecule shown here, CC(=O)N[C@@H](CS)C(=O)O , give the reported LBPA endosome anti-LBPA integrated intensity (z-score).
**Result** -0.477

**Query** Data request, read-out LBPA endosome anti-LBPA integrated intensity (z-score), for CCCCNC(=O)NS(=O)(=O)c1ccc(C)cc1 [Tolbutamide]
**Result** -0.288

**Query** Sample CN1CCN(CCCN2c3ccccc3Sc3ccc(C(F)(F)F)cc32)CC1 [Trifluoperazine dihydrochloride] — what was its LBPA endosome anti-LBPA integrated intensity (z-score)?
**Result** 1.83

**Query** Requested field: LBPA endosome anti-LBPA integrated intensity (z-score). Item: CC[C@H]1OC(=O)[C@H](C)[C@@H](O[C@H]2C[C@@](C)(OC)[C@@H](O)[C@H](C)O2)[C@H](C)[C@@H](O[C@@H]2O[C@H](C)C[C@H](N(C)C)[C@H]2O)[C@](C)(OC)C[C@@H](C)C(=O)[C@H](C)[C@@H](O)[C@]1(C)O
**Result** -0.524
